Where these numbers come from: the supplement of paper PMC6555819

Measured PBM binding z-score values are reported for all entries that follow.
test system: LXRa homodimer (NR concentration 270 nM); assay: PBM binding z-score (relative to random genomic background probes); higher = stronger binding; sequences stand for … in GC…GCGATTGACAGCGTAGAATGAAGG

polymer_sequence: ATATCTAGGTAAAGATAGTTCAGTGAATGCAAAT
PBM binding z-score: 0.545
--
polymer_sequence: TCGAGTACGTTACCAATGGGGCATTCAGCTTTCT
PBM binding z-score: -0.435
--
polymer_sequence: TCTATTAGTTGATTAGAGCAACCGAAACAGCGGA
PBM binding z-score: 0.0625
--
polymer_sequence: TAGCCTGGGTCAGATCGGGCCAGTATACGCTATA
PBM binding z-score: -0.918
--
polymer_sequence: ATCGAAAAGTCGTGAGGTGAGTATACAGAAAGGC
PBM binding z-score: -0.461
--
polymer_sequence: CGTCAAAGTTCAACTACGGTAACGTAAAGCACGC
PBM binding z-score: 4.35
--
polymer_sequence: TAGCCTAGGTCTTGCGGGCCAGTATAGTGTCGGC
PBM binding z-score: -0.807
--
polymer_sequence: CCTAGCAGGCCAAACTGGGTCACTCAAGGCTTGA
PBM binding z-score: -0.345
--
polymer_sequence: ATCAAAAGGTCGTGAGGTGAGTATACAGAAAGGC
PBM binding z-score: 0.539
--
polymer_sequence: TCTAGTTGGTCAAAGGTCACACACTCGAAATGCG
PBM binding z-score: 4
--
polymer_sequence: TCTTGTAGATCAAAGGTGAAGAAAGCCGAAGCCT
PBM binding z-score: -0.533
--
polymer_sequence: TCATATAGGTAAAGGTGAAAGTAGAACGATATGA
PBM binding z-score: -0.101

* * *

system: FXR:RXRa (NR concentration 270 nM, RXRa partner concentration 90 nM); assay: PBM binding z-score (relative to random genomic background probes); higher = stronger binding; sequences stand for … in GC…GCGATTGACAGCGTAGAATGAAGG
Rule: fulfilled for PBM binding z-score not less than 2, not fulfilled for anything less.

polymer_sequence: ACAGACAGGTGATGGAGGTAACTCAGGCTATCAT
target_under_test: FXR:RXRa (NR concentration 270 nM, RXRa partner concentration 90 nM)
class: not fulfilled

polymer_sequence: TATCCTAGGTCATGCGGGCCAGTATAGTGTCGGC
target_under_test: FXR:RXRa (NR concentration 270 nM, RXRa partner concentration 90 nM)
class: fulfilled

polymer_sequence: CAGCCTAGGTCAGGCCCAGTATAGGAGGAACGTT
target_under_test: FXR:RXRa (NR concentration 270 nM, RXRa partner concentration 90 nM)
class: not fulfilled

polymer_sequence: ACAGACAGGTGATGAAGGTAATTCAGGCTATCAT
target_under_test: FXR:RXRa (NR concentration 270 nM, RXRa partner concentration 90 nM)
class: not fulfilled

polymer_sequence: CCTAGTTGGTCAGGAGGTCACCCACCGGATATGA
target_under_test: FXR:RXRa (NR concentration 270 nM, RXRa partner concentration 90 nM)
class: fulfilled

polymer_sequence: ACTAGTCGGTCAGCTGAGGTCACACACAATTCGG
target_under_test: FXR:RXRa (NR concentration 270 nM, RXRa partner concentration 90 nM)
class: fulfilled

polymer_sequence: CCTTACGGGTCACTGACCGGTTATAGCATTTGGA
target_under_test: FXR:RXRa (NR concentration 270 nM, RXRa partner concentration 90 nM)
class: fulfilled

polymer_sequence: CCTTACGGGTCACTGAGAGGTTATAGCATTTGGA
target_under_test: FXR:RXRa (NR concentration 270 nM, RXRa partner concentration 90 nM)
class: fulfilled

polymer_sequence: CTCGAAAGGTCGTGCGCAGGTGAGTATACCAAAC
target_under_test: FXR:RXRa (NR concentration 270 nM, RXRa partner concentration 90 nM)
class: fulfilled

polymer_sequence: CGAACTAGGTCATTGACAGCACAGTGAATAGTAA
target_under_test: FXR:RXRa (NR concentration 270 nM, RXRa partner concentration 90 nM)
class: fulfilled

polymer_sequence: GCAACTGGGGCAAAGCAGGTTACCATAAGGTTGG
target_under_test: FXR:RXRa (NR concentration 270 nM, RXRa partner concentration 90 nM)
class: not fulfilled

polymer_sequence: GCATATAGGTAATACCAGGTGAAAGTCCGATTGT
target_under_test: FXR:RXRa (NR concentration 270 nM, RXRa partner concentration 90 nM)
class: not fulfilled

polymer_sequence: CCGCCTGGGGCAAAGGTTACCATACTCAGTACGA
target_under_test: FXR:RXRa (NR concentration 270 nM, RXRa partner concentration 90 nM)
class: not fulfilled

polymer_sequence: TTACCAAGGTGACAGGTCGTTGATGCACGCCTTG
target_under_test: FXR:RXRa (NR concentration 270 nM, RXRa partner concentration 90 nM)
class: not fulfilled

polymer_sequence: CGAACTAGGTCATTGACAGGACAGCGAATAGTAA
target_under_test: FXR:RXRa (NR concentration 270 nM, RXRa partner concentration 90 nM)
class: fulfilled

polymer_sequence: ATATGTAGGTTACATACGGGTCATTCAGGCTATG
target_under_test: FXR:RXRa (NR concentration 270 nM, RXRa partner concentration 90 nM)
class: fulfilled

polymer_sequence: ATATGTAGGTTAAGGGTCATTCATGTTGGTTCGC
target_under_test: FXR:RXRa (NR concentration 270 nM, RXRa partner concentration 90 nM)
class: fulfilled

polymer_sequence: TCTTGTAGATCAACAGGAGGTTAAGAATGATCGA
target_under_test: FXR:RXRa (NR concentration 270 nM, RXRa partner concentration 90 nM)
class: not fulfilled

polymer_sequence: ATCTCTAGGTAAGACTTAGTTCAGTGAAGAACGC
target_under_test: FXR:RXRa (NR concentration 270 nM, RXRa partner concentration 90 nM)
class: not fulfilled

polymer_sequence: TGGAGTAGGTTACCAATGGGGCATTCAGCTTTCT
target_under_test: FXR:RXRa (NR concentration 270 nM, RXRa partner concentration 90 nM)
class: not fulfilled

polymer_sequence: TCTTGTAGATCCAAGGTTAAGAAAGCCGAAGCCT
target_under_test: FXR:RXRa (NR concentration 270 nM, RXRa partner concentration 90 nM)
class: not fulfilled

polymer_sequence: AATACAGGCTCATCGTAGGCCAGAGTACGCACAG
target_under_test: FXR:RXRa (NR concentration 270 nM, RXRa partner concentration 90 nM)
class: not fulfilled

polymer_sequence: AGAATGAGGTTATACGTAAATCAGGGAAGAAAGT
target_under_test: FXR:RXRa (NR concentration 270 nM, RXRa partner concentration 90 nM)
class: fulfilled

polymer_sequence: GCAGACAGGTGAACCGCAGGTAACTCAGGGTGGC
target_under_test: FXR:RXRa (NR concentration 270 nM, RXRa partner concentration 90 nM)
class: not fulfilled

polymer_sequence: AGAATGAGGTTATACGTAGATGAGGGAAGAAAGT
target_under_test: FXR:RXRa (NR concentration 270 nM, RXRa partner concentration 90 nM)
class: fulfilled

polymer_sequence: GCTATTAGTTGAAAGGACAACCGAATGATTCTCG
target_under_test: FXR:RXRa (NR concentration 270 nM, RXRa partner concentration 90 nM)
class: not fulfilled

polymer_sequence: TCTTGTAGATCAGCAGGTTAACAAAGCTGGCCAA
target_under_test: FXR:RXRa (NR concentration 270 nM, RXRa partner concentration 90 nM)
class: not fulfilled

polymer_sequence: ATCGAAAGGTCGACGTGGTGAGTATACACCGTTT
target_under_test: FXR:RXRa (NR concentration 270 nM, RXRa partner concentration 90 nM)
class: fulfilled

polymer_sequence: ATATGTAGGTTATCAGGTCATTCAGTTTGCGCAT
target_under_test: FXR:RXRa (NR concentration 270 nM, RXRa partner concentration 90 nM)
class: fulfilled

polymer_sequence: CCTTACGAGTCACTCCAGGTTATAGCATCGGAGT
target_under_test: FXR:RXRa (NR concentration 270 nM, RXRa partner concentration 90 nM)
class: not fulfilled

polymer_sequence: GATACAGGGTCAGATAGAGGCCAGAGTATGGAAA
target_under_test: FXR:RXRa (NR concentration 270 nM, RXRa partner concentration 90 nM)
class: fulfilled

polymer_sequence: TCGAGTTGGTTAGGGGCATTCAGAATGGCGTCGA
target_under_test: FXR:RXRa (NR concentration 270 nM, RXRa partner concentration 90 nM)
class: not fulfilled

polymer_sequence: TATAGAGGGTCAAAGGCCAGAGTACGAATGTCGA
target_under_test: FXR:RXRa (NR concentration 270 nM, RXRa partner concentration 90 nM)
class: fulfilled

polymer_sequence: TCTGCTAGGTCAGTTGGTCAGCTAACGAGCTGCC
target_under_test: FXR:RXRa (NR concentration 270 nM, RXRa partner concentration 90 nM)
class: not fulfilled

polymer_sequence: CTTCCAAGGTGAACAAGGTCGTTGATTACTATTC
target_under_test: FXR:RXRa (NR concentration 270 nM, RXRa partner concentration 90 nM)
class: not fulfilled

polymer_sequence: ATATGTAGCTTACATCCGGGTCATTCAGGCTATG
target_under_test: FXR:RXRa (NR concentration 270 nM, RXRa partner concentration 90 nM)
class: not fulfilled

polymer_sequence: AGTCCAAGTTCAGGACGAGGTAACGTAAAGCACG
target_under_test: FXR:RXRa (NR concentration 270 nM, RXRa partner concentration 90 nM)
class: not fulfilled

polymer_sequence: TAGCCCAGGTCAGATCGGGCCAGTATACGCTATA
target_under_test: FXR:RXRa (NR concentration 270 nM, RXRa partner concentration 90 nM)
class: fulfilled

polymer_sequence: TCTAGTTGGTCAAAGGTCACAAACTCGAAATGCG
target_under_test: FXR:RXRa (NR concentration 270 nM, RXRa partner concentration 90 nM)
class: fulfilled

polymer_sequence: TCTTGTAGATCAGCAGGTTAAGATAGCTGGCCAA
target_under_test: FXR:RXRa (NR concentration 270 nM, RXRa partner concentration 90 nM)
class: not fulfilled

polymer_sequence: TCTTGTAGATCAATAAAGGTTAAGAAAGTGCGCT
target_under_test: FXR:RXRa (NR concentration 270 nM, RXRa partner concentration 90 nM)
class: not fulfilled

polymer_sequence: AGTCAAAGTTAATCTAGGTAACGTAAGATATGCT
target_under_test: FXR:RXRa (NR concentration 270 nM, RXRa partner concentration 90 nM)
class: not fulfilled

polymer_sequence: CCAGACAGGTGATAGGTAACTCAGTCTGGTACGC
target_under_test: FXR:RXRa (NR concentration 270 nM, RXRa partner concentration 90 nM)
class: not fulfilled

polymer_sequence: AGAATGACGTTAAGATCAGGGAAACAGAATACAT
target_under_test: FXR:RXRa (NR concentration 270 nM, RXRa partner concentration 90 nM)
class: not fulfilled

polymer_sequence: TCGAGTAGGGTAGGGGCATTCAGAATGGCGTCGA
target_under_test: FXR:RXRa (NR concentration 270 nM, RXRa partner concentration 90 nM)
class: not fulfilled

polymer_sequence: TCATATAGGTAAATTCTAGGTGAAAGTCCGATCT
target_under_test: FXR:RXRa (NR concentration 270 nM, RXRa partner concentration 90 nM)
class: not fulfilled

polymer_sequence: ATCTCTAGGCAACCAAGTTCAGTGAATGCCGAAC
target_under_test: FXR:RXRa (NR concentration 270 nM, RXRa partner concentration 90 nM)
class: not fulfilled

polymer_sequence: AGAACGAGGGCACGCTGACTTGATAGCAGAGTAG
target_under_test: FXR:RXRa (NR concentration 270 nM, RXRa partner concentration 90 nM)
class: not fulfilled

polymer_sequence: AGAAGGAGGTTATTAAGATCAGGGAATTGCGGTC
target_under_test: FXR:RXRa (NR concentration 270 nM, RXRa partner concentration 90 nM)
class: not fulfilled

polymer_sequence: TCATATAGGTAAAAGGTGAAAGGCGGTGTGGTAA
target_under_test: FXR:RXRa (NR concentration 270 nM, RXRa partner concentration 90 nM)
class: not fulfilled
